target: pre-pro-insulin glargine
property-label: Yield

protein | property-label | value
trypsin variant SEQ ID NO: 57 (protein) IVGGYTCAANSIPYQVSLNSGSHRCGGSLINSQWVVSAAHCYKSRIQVRLGEHNIHVLEGNEQFINAAKIITHPNFNGNTLDNDIMLIKLSSPATLNSRVATVSLPRSCAAAGTECLISGWGNTKSSGSSYPSLLQCLKAPVLSDSSCKSSYPGQITGNMICVGFLEGGKDACQGDSGGPVVCNGQLQGIVSSGYGCAQKNKPGVYTKVCNYVNWIQQTIAAN | Yield | > 90%
trypsin variant SEQ ID NO: 110 (protein) IVGGYTCAANSIPYQVSLNSGSHRCGGSLINSQWVVSAAHCYKSRIQVRLGEHNIHVLEGNEQFINAAKIITHPNFNPNTLDNDIMLIKLSSPATLNSHVATVSLPRSCAAAGTECLISGWGNTCSSGSSMPSLLQCLKAPVLSDSSCKSSYPGQITGNMICVGFLEGGADACQGDSGGPVVCNGQLQGIVSSGYGCAQKNKPGVYTKVCNYVNWIQQTIAAN | Yield | > 90%

Now for a further protein.
Q: Looking for the measured Yield of trypsin variant SEQ ID NO: 101 (protein) IVGGYTCAANSIPYQVSLNSGSHRCGGSLINSQWVVSAAHCYKSRIQVRLGEHNIHVLEGNEQFINAAKIITHPNFNPNTLDNDIMLIKLSSPATLNSNVATVSLPTSCAAAGTECLISGWGNTSSSGSSMPSLLQCLKAPVLSDSSCKSSYPGQITGNMICVGFLEGGADACQGDSGGPVVCNGQLQGIVSSGYGCAQKNKPGVYTKVCNYVNWIQQTIAAN , can you help?
A: > 90%
